result_type: melting point

CS(=O)(=O)c1ccc(C(=O)c2cc(-c3cccnc3)c(N3CCOCC3)s2)cc1    147 °C
CCOC(=O)Cc1cccc(Oc2ccccc2Cl)c1NS(C)(=O)=O    145 to 149 °C
N#Cc1cc(Br)c(OC(=O)OCOC(=O)COc2ccc(Cl)cc2Cl)c(Br)c1    88 to 89 °C
CN(Cc1ccccc1)S(=O)(=O)CC#N    68 to 70 °C
N#Cc1ccc(OCCCCCCOc2ccc(-c3cc4ccc(C#N)cc4o3)cc2)cc1    159 to 160 °C
CCOc1cc(CC)ccc1C1CCN(CCCCNC(=O)c2sc(-c3ccc(C(F)(F)F)cc3)nc2CO)CC1    150 °C

Incoming: Give the measured melting point of CON(C)C(=O)c1ccoc1 .
Outgoing: 39 to 42 °C

Incoming: Give the measured melting point of O=C(NCC(F)(F)F)C1c2cc(F)ccc2-c2c(CCCCN3CCC(N4C(=O)c5ccccc5C4=O)CC3)cc(F)cc21 (stereo not drawn) .
Outgoing: 186 to 188 °C

Incoming: Give the measured melting point of COc1ccc(-c2snnc2-c2ccccc2)cc1 .
Outgoing: 56.5 to 58 °C

Incoming: Give the measured melting point of CC(C)NC(=O)CN1CCN(c2nnc(N)[nH]2)CC1 .
Outgoing: 225 to 226 °C

Incoming: Give the measured melting point of O=c1cc(O)c2c([nH]1)CCCC2 .
Outgoing: > 300 °C

Incoming: Give the measured melting point of Cc1nc(N2CCN(CC3CC3)C2=O)sc1C(=O)NCc1ccc(F)cc1 .
Outgoing: 146 to 147 °C

Incoming: Give the measured melting point of NS(=O)(=O)OCCOc1cccc(Cl)c1 .
Outgoing: 66 to 69 °C

* * *

Listed here are compounds together with their documented melting point.

Sample records with melting point:
CCCCc1nc(C(=O)c2ccccc2)c(C#N)[nH]1    121 to 122 °C
C=CCC(C(N)=O)C(N)=O    168 to 169 °C
CCCn1c(=O)c2c(n(Cc3ccccc3)c1=O)NN=C(NC(C)=O)S2    135 to 140 °C
COC(=O)c1c(C2=NC(C)(C(C)C)C(=O)N2)cccc1[N+](=O)[O-] (stereo unspecified)    159 to 162 °C
COC(=O)[C@@]1(c2ccc(Br)cc2)CC1(c1ccccc1)c1ccccc1    82 to 85 °C
Nc1ccccc1Sc1ccc2c(c1)OCC(=O)N2    70 to 71 °C
O=c1c(CCl)cc2cc([N+](=O)[O-])ccc2n1-c1ccccc1    152 to 154 °C
CNc1ccc(Oc2nc(OC)cc(OC)n2)c(C(=O)O)n1    172 to 174 °C
COc1cc(CCl)c(OCCC(C)CCCC(C)C)cc1CCl (stereo unspecified)    65 °C
O=C(O)c1ccc2nc(-c3ccc(F)cc3)[nH]c(=O)c2c1    397 to 399 °C

Query compound follows.
Incoming: Give the measured melting point of CN1CCN(c2ccc(Nc3ncc4c(n3)S/C(=C/c3ccc(C#N)cc3)C(=O)N4)cc2)CC1 .
Outgoing: 274 to 276 °C

* * *

Listed here are molecules together with their documented melting point.

C=C(C)CN1C(=O)CC(=O)N(c2ccccc2)c2cc(Cl)ccc21    149 to 151 °C

Incoming: Give the measured melting point of Cc1ccc(-n2nc3c4cc(Cc5ccccc5)ccc4[nH]c(=O)n3c2=O)cc1 .
Outgoing: 299 °C

Incoming: Give the measured melting point of CC(Cn1ncnn1)n1nnc2cc3c(=O)n(Cc4cccnc4)nnc3cc2c1=O (stereo unspecified) .
Outgoing: 200 °C

Incoming: Give the measured melting point of CN1CC(C(C#N)(c2ccccc2)c2ccccc2)C1 .
Outgoing: 113 to 115 °C

Incoming: Give the measured melting point of CNC(=O)c1cc2c(c(F)c1F)N(c1ccc(I)cc1C)COC2=O .
Outgoing: 219 to 223 °C
